- test.name: Half life in C57BL/6J mouse at 10 mg/kg, po
- Assay type: ADME, organism-based
- Parameters: dose 10 mg/kg, route oral
- experimental.setup: in vivo
observable: half-life (h)
The response must be a number in h with no trailing unit.

Item CC(C)c1noc(C2CCN(c3ncnc(Nc4ccc(S(C)(=O)=O)cc4F)c3[N+](=O)[O-])CC2)n1 has what recorded half-life?
3.4

---

- test.name: Oral bioavailability in Sprague-Dawley rat at 10 mg/kg
- Type: ADME, organism-based
- experimental.setup: in vivo
observable: bioavailability (%)
The response must be a number in % with no trailing unit.

Item CC(C)c1noc(C2CCN(c3ncnc(Nc4ccc(S(C)(=O)=O)cc4F)c3[N+](=O)[O-])CC2)n1 has what recorded bioavailability?
12
